Target: BSA (Bos taurus)
Construct: Bovine serum albumin (BSA; Fatty Acid/IgG/Protease-Free); purchased FUJIFILM Wako Pure Chemical Corporation, Ltd. (Osaka, Japan)
Sequence (P02769 25-607): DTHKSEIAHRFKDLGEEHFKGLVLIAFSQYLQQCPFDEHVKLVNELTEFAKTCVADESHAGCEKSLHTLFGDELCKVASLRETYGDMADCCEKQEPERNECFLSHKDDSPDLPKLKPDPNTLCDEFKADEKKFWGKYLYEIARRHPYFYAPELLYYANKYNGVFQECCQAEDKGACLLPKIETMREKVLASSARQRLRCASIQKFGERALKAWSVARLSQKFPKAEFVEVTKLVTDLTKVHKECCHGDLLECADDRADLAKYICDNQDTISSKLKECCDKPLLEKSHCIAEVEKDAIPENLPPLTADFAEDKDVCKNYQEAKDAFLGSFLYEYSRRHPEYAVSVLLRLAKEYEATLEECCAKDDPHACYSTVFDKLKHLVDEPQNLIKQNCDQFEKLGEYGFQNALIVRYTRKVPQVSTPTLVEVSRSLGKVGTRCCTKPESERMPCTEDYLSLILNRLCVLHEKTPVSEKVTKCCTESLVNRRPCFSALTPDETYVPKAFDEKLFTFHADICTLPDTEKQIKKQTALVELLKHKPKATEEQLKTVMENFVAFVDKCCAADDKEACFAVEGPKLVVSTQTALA
Experiment: Fluorescence quenching binding parameters between vitamin E and BSA
Parameters: species or system bovine
Conditions: 2.0 μM BSA, room temperature; mean ± S.E. (n = 3)
Endpoint: number of binding site (n)

Per the record, "CC(C)=CCC/C(C)=C/CC/C(C)=C/CC[C@]1(C)CCc2c(C)c(O)cc(C)c2O1" has number of binding site (n) of 0.76

The recorded number of binding site (n) for entry "Cc1cc(O)c(C)c2c1O[C@](C)(CCC[C@H](C)CCC[C@H](C)CCCC(C)C)CC2" equals 0.69

number of binding site (n) measured on "Cc1c(C)c2c(c(C)c1O)CC[C@@](C)(CCC[C@H](C)CCC[C@H](C)CCCC(C)C)O2" = 0.69

Recorded result, "CC(C)=CCC/C(C)=C/CC/C(C)=C/CC[C@]1(C)CCc2c(C)c(O)c(C)c(C)c2O1" , number of binding site (n): 0.70

"Cc1c(O)cc2c(c1C)O[C@](C)(CCC[C@H](C)CCC[C@H](C)CCCC(C)C)CC2" yielded number of binding site (n) of 0.71

In plain terms, "Cc1cc(O)cc2c1O[C@](C)(CCC[C@H](C)CCC[C@H](C)CCCC(C)C)CC2" has a documented number of binding site (n) of 0.71

Sure, the documented number of binding site (n) for "CC(C)=CCC/C(C)=C/CC/C(C)=C/CC[C@]1(C)CCc2cc(O)cc(C)c2O1" is 0.78

Given item "CC(C)=CCC/C(C)=C/CC/C(C)=C/CC[C@]1(C)CCc2cc(O)c(C)c(C)c2O1" , the value recorded as its number of binding site (n) is 0.74
